# System: Staphylococcus aureus
# method_summary: Antimicrobial activity against Staphylococcus aureus at 25 ug after 24 hrs by disk diffusion method
# Format: functional
# run_parameters: read-out: IZ
assay_readout: zone of inhibition at 25 µg/disc (mm)
Give bare numbers, in mm.

Some solved cases for reference:
* c1ccc(C2c3ccccc3N[C@H]3c4cccn4C[C@@H]23)cc1 (stereo partly specified) | 17
* c1ccc(C2c3cc(Cc4ccc5c(c4)C(c4ccccc4)C4Cn6cccc6C4N5)ccc3NC3c4cccn4CC32)cc1 (stereo unspecified) | 21
* COc1ccc2c(c1)C(c1ccccc1)[C@@H]1Cn3cccc3[C@@H]1N2 (stereo partly specified) | 36
* O=C(O)c1cn(C2CC2)c2cc(N3CCNCC3)c(F)cc2c1=O | 36

# batch size: 2; output zone of inhibition at 25 µg/disc per entry
1. O=C1c2ccccc2C(=O)C12Nc1ccc(Br)cc1[C@H]1OCCC[C@H]12
2. Cn1c(=O)c2cc3n(c2n(C)c1=O)CC1C3Nc2ccc(Cl)cc2C1(C)C (stereo unspecified)

[A]
1: 14; 2: 36

---

Give measured zone of inhibition at 15 µg/disc for each item. Keep answers brief.
# System: Klebsiella pneumoniae
# method_summary: Antimicrobial activity against Klebsiella pneumoniae at 15 ug after 24 hrs by disk diffusion method
# Assay type: functional
# run_parameters: read-out: IZ
Answers are plain numbers, in mm.

- COc1ccc2c(c1)C(c1ccccc1)[C@@H]1Cn3cccc3[C@@H]1N2 (stereo partly specified): 16
- Cn1c(=O)c2cc3n(c2n(C)c1=O)CC1C3Nc2ccc(Cl)cc2C1(C)C (stereo unspecified): 30
- c1ccc(C2c3cc(Cc4ccc5c(c4)C(c4ccccc4)C4Cn6cccc6C4N5)ccc3NC3c4cccn4CC32)cc1 (stereo unspecified): 19
- c1ccc(C2c3ccccc3N[C@H]3c4cccn4C[C@@H]23)cc1 (stereo partly specified): 30
- O=C(O)c1cn(C2CC2)c2cc(N3CCNCC3)c(F)cc2c1=O: 30

Could you now consider this next molecule?
[Q] Reported zone of inhibition at 15 µg/disc for `O=C1c2ccccc2C(=O)C12Nc1ccc(Br)cc1[C@H]1OCCC[C@H]12` : what is it?
[A] 13

---

# Tested on: Salmonella typhimurium
# method_summary: Antimicrobial activity against Salmonella Typhimurium at 10 ug after 24 hrs by disk diffusion method
# Format: functional, Salmonella enterica subsp. enterica serovar Typhimurium
# run_parameters: Salmonella enterica, read-out: IZ
assay_readout: zone of inhibition at 10 µg/disc (mm)
Numbers only, in mm.

Some solved cases for reference:
- Cn1c(=O)c2cc3n(c2n(C)c1=O)CC1C3Nc2ccc(Cl)cc2C1(C)C (stereo unspecified): 16
- COc1ccc2c(c1)C(c1ccccc1)[C@@H]1Cn3cccc3[C@@H]1N2 (stereo partly specified): 16
- O=C(O)c1cn(C2CC2)c2cc(N3CCNCC3)c(F)cc2c1=O [CIPROFLOXACIN]: 16
- c1ccc(C2c3ccccc3N[C@H]3c4cccn4C[C@@H]23)cc1 (stereo partly specified): 16
- O=C1c2ccccc2C(=O)C12Nc1ccc(Br)cc1[C@H]1OCCC[C@H]12: 10

Could you now consider this next compound?
[Q] Reported zone of inhibition at 10 µg/disc for c1ccc(C2c3cc(Cc4ccc5c(c4)C(c4ccccc4)C4Cn6cccc6C4N5)ccc3NC3c4cccn4CC32)cc1 (stereo unspecified) : what is it?
[A] 16

---

Give measured zone of inhibition at 20 µg/disc for each item. Keep answers brief.
# Tested on: Klebsiella pneumoniae
# method_summary: Antimicrobial activity against Klebsiella pneumoniae at 20 ug after 24 hrs by disk diffusion method
# Format: functional
# run_parameters: read-out: IZ
Answers are plain numbers, in mm.

Some solved cases for reference:
- COc1ccc2c(c1)C(c1ccccc1)[C@@H]1Cn3cccc3[C@@H]1N2 (stereo partly specified): 24
- Cn1c(=O)c2cc3n(c2n(C)c1=O)CC1C3Nc2ccc(Cl)cc2C1(C)C (stereo unspecified): 34

# batch size: 3; output zone of inhibition at 20 µg/disc per entry
1. O=C(O)c1cn(C2CC2)c2cc(N3CCNCC3)c(F)cc2c1=O
2. c1ccc(C2c3cc(Cc4ccc5c(c4)C(c4ccccc4)C4Cn6cccc6C4N5)ccc3NC3c4cccn4CC32)cc1 (stereo unspecified)
3. O=C1c2ccccc2C(=O)C12Nc1ccc(Br)cc1[C@H]1OCCC[C@H]12

[A]
[34, 24, 14]

[Q] Which measured zone of inhibition at 20 µg/disc belongs to c1ccc(C2c3ccccc3N[C@H]3c4cccn4C[C@@H]23)cc1 (stereo partly specified) , tested on Klebsiella pneumoniae?
[A] 34

---

# Tested on: Escherichia coli
# method_summary: Antimicrobial activity against Escherichia coli at 25 ug after 24 hrs by disk diffusion method
# Assay type: functional
# run_parameters: read-out: IZ
assay_readout: zone of inhibition at 25 µg/disc (mm)
Numbers only, in mm.

Some solved cases for reference:
- O=C1c2ccccc2C(=O)C12Nc1ccc(Br)cc1[C@H]1OCCC[C@H]12: 13
- c1ccc(C2c3cc(Cc4ccc5c(c4)C(c4ccccc4)C4Cn6cccc6C4N5)ccc3NC3c4cccn4CC32)cc1 (stereo not given): 22
- COc1ccc2c(c1)C(c1ccccc1)[C@@H]1Cn3cccc3[C@@H]1N2 (stereo not given in full): 23
- Cn1c(=O)c2cc3n(c2n(C)c1=O)CC1C3Nc2ccc(Cl)cc2C1(C)C (stereo not given): 23

Could you now consider this next compound?
[Q] Which measured zone of inhibition at 25 µg/disc belongs to c1ccc(C2c3ccccc3N[C@H]3c4cccn4C[C@@H]23)cc1 (stereo not given in full) , tested on Escherichia coli?
[A] 23

---

Give measured MIC50 for each item. Keep answers brief.
# Tested on: Klebsiella pneumoniae
# method_summary: Antimicrobial activity against Klebsiella pneumoniae by broth microdilution assay
# Type: functional
Give bare numbers, in µg/mL.

Some solved cases for reference:
• O=C(O)c1cn(C2CC2)c2cc(N3CCNCC3)c(F)cc2c1=O = 0.03
• O=C1c2ccccc2C(=O)C12Nc1ccc(Br)cc1[C@H]1OCCC[C@H]12 = 0.25

# batch size: 3; output MIC50 per entry
1. COc1ccc2c(c1)C(c1ccccc1)[C@@H]1Cn3cccc3[C@@H]1N2 (stereo partly specified)
2. c1ccc(C2c3cc(Cc4ccc5c(c4)C(c4ccccc4)C4Cn6cccc6C4N5)ccc3NC3c4cccn4CC32)cc1 (stereo unspecified)
3. c1ccc(C2c3ccccc3N[C@H]3c4cccn4C[C@@H]23)cc1 (stereo partly specified)

[A]
1: 0.25; 2: 0.125; 3: 2

[Q] Reported MIC50 for Cn1c(=O)c2cc3n(c2n(C)c1=O)CC1C3Nc2ccc(Cl)cc2C1(C)C (stereo unspecified) : what is it?
[A] 0.125

---

# System: Bacillus subtilis
# method_summary: Antimicrobial activity against Bacillus subtilis by broth microdilution assay
# Format: functional
assay_readout: log10 of MIC50 (log10 of the value in µg/mL)
Could you please treat all values as log10 of MIC50 in µg/mL?

# batch size: 3; output log10 of MIC50 per entry
1. Cn1c(=O)c2cc3n(c2n(C)c1=O)CC1C3Nc2ccc(Cl)cc2C1(C)C (stereo unspecified)
2. c1ccc(C2c3ccccc3N[C@H]3c4cccn4C[C@@H]23)cc1 (stereo partly specified)
3. O=C1c2ccccc2C(=O)C12Nc1ccc(Br)cc1[C@H]1OCCC[C@H]12

[A]
1: -0.60; 2: 0.40; 3: 0.70

# batch size: 3; output log10 of MIC50 per entry
1. c1ccc(C2c3cc(Cc4ccc5c(c4)C(c4ccccc4)C4Cn6cccc6C4N5)ccc3NC3c4cccn4CC32)cc1 (stereo unspecified)
2. O=C(O)c1cn(C2CC2)c2cc(N3CCNCC3)c(F)cc2c1=O
3. COc1ccc2c(c1)C(c1ccccc1)[C@@H]1Cn3cccc3[C@@H]1N2 (stereo partly specified)

[A]
-0.60
-1.40
-0.52

---

# System: Staphylococcus aureus
# method_summary: Antimicrobial activity against Staphylococcus aureus at 20 ug after 24 hrs by disk diffusion method
# Assay type: functional
# run_parameters: read-out: IZ
assay_readout: zone of inhibition at 20 µg/disc (mm)
One number for each entry, in mm.

Some solved cases for reference:
- c1ccc(C2c3ccccc3N[C@H]3c4cccn4C[C@@H]23)cc1 (stereo partly specified): 14
- c1ccc(C2c3cc(Cc4ccc5c(c4)C(c4ccccc4)C4Cn6cccc6C4N5)ccc3NC3c4cccn4CC32)cc1 (stereo unspecified): 17
- COc1ccc2c(c1)C(c1ccccc1)[C@@H]1Cn3cccc3[C@@H]1N2 (stereo partly specified): 30
- O=C1c2ccccc2C(=O)C12Nc1ccc(Br)cc1[C@H]1OCCC[C@H]12: 12
- Cn1c(=O)c2cc3n(c2n(C)c1=O)CC1C3Nc2ccc(Cl)cc2C1(C)C (stereo unspecified): 30

Could you now consider this next compound?
[Q] Reported zone of inhibition at 20 µg/disc for `O=C(O)c1cn(C2CC2)c2cc(N3CCNCC3)c(F)cc2c1=O` : what is it?
[A] 30

---

# Test system: Klebsiella pneumoniae
# method_summary: Antimicrobial activity against Klebsiella pneumoniae by broth microdilution assay
# Format: functional
Give measured MIC90 for each item. Keep answers brief.
Answers are plain numbers, in µg/mL.

# batch size: 6; output MIC90 per entry
1. O=C1c2ccccc2C(=O)C12Nc1ccc(Br)cc1[C@H]1OCCC[C@H]12
2. c1ccc(C2c3cc(Cc4ccc5c(c4)C(c4ccccc4)C4Cn6cccc6C4N5)ccc3NC3c4cccn4CC32)cc1 (stereo unspecified)
3. Cn1c(=O)c2cc3n(c2n(C)c1=O)CC1C3Nc2ccc(Cl)cc2C1(C)C (stereo unspecified)
4. COc1ccc2c(c1)C(c1ccccc1)[C@@H]1Cn3cccc3[C@@H]1N2 (stereo partly specified)
5. O=C(O)c1cn(C2CC2)c2cc(N3CCNCC3)c(F)cc2c1=O
6. c1ccc(C2c3ccccc3N[C@H]3c4cccn4C[C@@H]23)cc1 (stereo partly specified)

[A]
4
2
2
2
0.5
32
